Source listed as ChEMBL document CHEMBL1129279.

assay system: Gastrin/cholecystokinin type B receptor (Cavia porcellus)
experiment: Inhibition of binding of [3H]N-Me-N-Leu-CCK-8 to cholecystokinin type B receptor in guinea pig brain cortex
pIC50: −log10 of the molar value.
measured endpoint: pIC50

>>> measured("O=C(O)CC[C@@H](NC(=O)c1cc(Cl)cc(Cl)c1)C(=O)N1CCC2(CCCC2)CC1 [SPIROGLUMIDE]")
5.85
